measurement-label: melting point

CCOC(=O)COc1nc(C)cn2c(Cc3ccccc3-c3ccc(F)cc3)c(CC)c(C(=O)C(N)=O)c12 [Compound I-90] :: 172 to 173 °C
COC(=O)COc1nc(C)cn2c(Cc3ccc(F)cc3)c(C3CC3)c(C(=O)C(N)=O)c12 [Compound I-77] :: 179 to 182.5 °C
COC(=O)COc1nc(C)cn2c(Cc3ccccc3)c(C)c(C(=O)C(N)=O)c12 [Compound I-83] :: 205 to 207 °C

Query: Return reported melting point; argument: CCc1c(C(=O)C(N)=O)c2c(OCC(=O)OC)nccn2c1Cc1ccccc1 [Compound I-1]
Response: 151 to 152 °C
